- targetDesc: Type II 5α-Reductase from Human Prostate (Homo sapiens, UniProt P31213)
- Construct: The same procedure as above was used for preparations using tissue from prostate surgery; from tissue; host or cells: human prostate tissue from surgery, homogenate, 100,000×g pellet
- assayNotes: Human Type II 5α-reductase assay (conversion of [3H]-testosterone to 5α-reduced metabolites)
- Format: biochemical
- experimentalConditions: 0.3 μM; sodium acetate pH 5.5, 25°, 30 min; compared to control reaction mixtures

molecule: CN1C(=O)CC[C@]2(C)c3ccc(-c4ccc(Cl)c(Cl)c4)cc3CC[C@@H]12 [Example 77]
unitAnnotation: %
percent inhibition of Type II AR: 33
--
molecule: CN1C(=O)CC[C@]2(C)c3ccc(Sc4ccc5ccccc5c4)cc3CC[C@@H]12 [Example 98]
unitAnnotation: %
percent inhibition of Type II AR: 44
--
molecule: CN1C(=O)CC[C@]2(C)c3ccc(-c4cncc5ccccc45)cc3CC[C@@H]12 [Example 200]
unitAnnotation: %
percent inhibition of Type II AR: 64
--
molecule: CN1C(=O)CC[C@]2(C)c3ccc(-c4ccccc4F)cc3CC[C@@H]12 [Example 38]
unitAnnotation: %
percent inhibition of Type II AR: 38
--
molecule: CN1C(=O)CC[C@]2(C)c3ccc(-c4cnc5ccccc5c4)cc3CC[C@@H]12 [Example 201]
unitAnnotation: %
percent inhibition of Type II AR: 57
--
molecule: CN1C(=O)CC[C@]2(C)c3ccc(Sc4nc5ccccc5s4)cc3CC[C@@H]12 [Example 112]
unitAnnotation: %
percent inhibition of Type II AR: 92
--
molecule: CN1C(=O)CC[C@]2(C)c3ccc(Sc4ccc5cc(F)ccc5n4)cc3CC[C@@H]12 [Example 173]
unitAnnotation: %
percent inhibition of Type II AR: 77
--
molecule: CN1C(=O)CC[C@]2(C)c3ccc(Sc4nc5c(Br)cccc5s4)cc3CC[C@@H]12 [Example 183]
unitAnnotation: %
percent inhibition of Type II AR: 87
--
molecule: Cc1cccc2sc(Sc3ccc4c(c3)CC[C@H]3N(C)C(=O)CC[C@]43C)nc12 [Example 159]
unitAnnotation: %
percent inhibition of Type II AR: 83
--
molecule: CN1C(=O)CC[C@]2(C)c3ccc(Sc4cccc(Cl)c4)cc3CC[C@@H]12 [Example 100]
unitAnnotation: %
percent inhibition of Type II AR: 34
--
molecule: CN1C(=O)CC[C@]2(C)c3ccc(SCc4cc5ccccc5cn4)cc3CC[C@@H]12 [Example 191]
unitAnnotation: %
percent inhibition of Type II AR: 28

* * *

- targetDesc: Type II 5α-Reductase from Human Prostate (Homo sapiens)
- Construct: The same procedure as above was used for preparations using tissue from prostate surgery; from tissue; host or cells: human prostate tissue from surgery, homogenate, 100,000×g pellet
- Sequence (P31213 1-254): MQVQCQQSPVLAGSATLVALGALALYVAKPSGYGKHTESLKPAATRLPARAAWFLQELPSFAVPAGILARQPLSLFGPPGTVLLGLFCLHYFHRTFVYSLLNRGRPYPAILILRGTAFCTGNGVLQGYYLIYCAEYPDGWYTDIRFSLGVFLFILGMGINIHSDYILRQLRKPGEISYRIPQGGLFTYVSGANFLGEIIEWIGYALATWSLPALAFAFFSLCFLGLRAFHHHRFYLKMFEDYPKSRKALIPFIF
- assayNotes: Human Type II 5α-reductase assay (conversion of [3H]-testosterone to 5α-reduced metabolites)
- Type: biochemical
- experimentalConditions: pH 5.5, 0.3 μM; sodium acetate pH 5.5, 25°, 30 min; compared to control reaction mixtures; read-out: percent inhibition of Type II AR
# if value of inhibition at 0.3 µM reaches 30%, tag true; if it stays below, tag false

structureNotation: CN1C(=O)CC[C@]2(C)c3ccc(-c4cnccn4)cc3CC[C@@H]12
classLabel: true

structureNotation: COc1ccccc1-c1ccc2c(c1)CC[C@H]1N(C)C(=O)CC[C@]21C
classLabel: true

structureNotation: CN1C(=O)CC[C@]2(C)c3ccc(-c4cc5ccccc5s4)cc3CC[C@@H]12
classLabel: true

structureNotation: CN1C(=O)CC[C@]2(C)c3ccc(-c4n[nH]c5ccccc45)cc3CC[C@@H]12
classLabel: true

structureNotation: CN1C(=O)CC[C@]2(C)c3ccc(CCc4ccccc4)cc3CC[C@@H]12
classLabel: true

structureNotation: CN1C(=O)CC[C@]2(C)c3ccc(Sc4nccc5ccccc45)cc3CC[C@@H]12
classLabel: true

structureNotation: CN1C(=O)CC[C@]2(C)c3ccc(-c4ncccn4)cc3CC[C@@H]12
classLabel: false

structureNotation: CN1C(=O)CC[C@]2(C)c3ccc(Sc4cncc5ccccc45)cc3CC[C@@H]12
classLabel: true

structureNotation: Cc1ccccc1-c1ccc2c(c1)CC[C@H]1N(C)C(=O)CC[C@]21C
classLabel: true

structureNotation: CN1C(=O)CC[C@]2(C)c3ccc(-c4ccc(COc5ccc(F)cc5)s4)cc3CC[C@@H]12
classLabel: true

structureNotation: CN1C(=O)CC[C@]2(C)c3ccc(-c4ccc(Cl)c(C(F)(F)F)c4)cc3CC[C@@H]12
classLabel: false

structureNotation: CN1C(=O)CC[C@]2(C)c3ccc(Sc4ncccn4)cc3CC[C@@H]12
classLabel: false

structureNotation: CCN(CC)C(=O)c1cc2cc(-c3ccc4c(c3)CC[C@H]3N(C)C(=O)CC[C@]43C)ccc2oc1=O
classLabel: false

structureNotation: C[C@]12CCC(=O)N[C@@H]1CCc1cc(Sc3cccc4ccccc34)ccc12
classLabel: true

structureNotation: CN1C(=O)CC[C@]2(C)c3ccc(SCc4ccccc4)cc3CC[C@@H]12
classLabel: true

structureNotation: CN1C(=O)CC[C@]2(C)c3ccc(-c4ccc(C(C)(C)C)cc4)cc3CC[C@@H]12
classLabel: true

* * *

- targetDesc: Type II 5α-Reductase from Human Prostate (Homo sapiens, UniProt P31213)
- Construct: The same procedure as above was used for preparations using tissue from prostate surgery; from tissue; host or cells: human prostate tissue from surgery, homogenate, 100,000×g pellet
- assayNotes: Human Type II 5α-reductase assay (conversion of [3H]-testosterone to 5α-reduced metabolites)
- Type: biochemical
- experimentalConditions: pH 5.5, 0.3 μM; sodium acetate pH 5.5, 25°, 30 min; compared to control reaction mixtures; read-out: percent inhibition of Type II AR
Entries annotated with measured inhibition at 0.3 µM

structureNotation: CN1C(=O)CC[C@]2(C)c3ccc(Sc4ccccc4F)cc3CC[C@@H]12
inhibition at 0.3 µM (%): 29
//
structureNotation: Cc1ccc(Sc2ccc3c(c2)CC[C@H]2NC(=O)CC[C@]32C)cc1
inhibition at 0.3 µM (%): 23
//
structureNotation: CN1C(=O)CC[C@]2(C)c3ccc(-c4cncc5ccccc45)cc3CC[C@@H]12
inhibition at 0.3 µM (%): 72
//
structureNotation: CN1C(=O)CC[C@]2(C)c3ccc(/C=C/c4cnc5ccccc5c4)cc3CC[C@@H]12
inhibition at 0.3 µM (%): 37
//
structureNotation: CN1C(=O)CC[C@]2(C)c3ccc(Sc4cccc5ccccc45)cc3CC[C@@H]12
inhibition at 0.3 µM (%): 58
//
structureNotation: CN1C(=O)CC[C@]2(C)c3ccc(NC(=O)c4ccc([N+](=O)[O-])cc4)cc3CC[C@@H]12
inhibition at 0.3 µM (%): 17
//
structureNotation: Cc1ccc(Sc2ccc3c(c2)CC[C@H]2N(C)C(=O)CC[C@]32C)cc1
inhibition at 0.3 µM (%): 52
//
structureNotation: CN1C(=O)CC[C@]2(C)c3ccc(-c4ccc(NC(=O)C(C)(C)C)c5ccccc45)cc3CC[C@@H]12
inhibition at 0.3 µM (%): 18
//
structureNotation: CN1C(=O)CC[C@]2(C)c3ccc(Sc4nc5c(OC(F)(F)F)cccc5s4)cc3CC[C@@H]12
inhibition at 0.3 µM (%): 78
//
structureNotation: COc1ccccc1Sc1ccc2c(c1)CC[C@H]1NC(=O)CC[C@]21C
inhibition at 0.3 µM (%): 22
//
structureNotation: CN1C(=O)CC[C@]2(C)c3ccc(-c4cc(F)c(F)c(F)c4)cc3CC[C@@H]12
inhibition at 0.3 µM (%): 32
//
structureNotation: CC(C)c1cccc2sc(Sc3ccc4c(c3)CC[C@H]3N(C)C(=O)CC[C@]43C)nc12
inhibition at 0.3 µM (%): 79
//
structureNotation: C[C@]12C=CC(=O)N[C@@H]1CCc1cc(-c3cccc([N+](=O)[O-])c3)ccc12
inhibition at 0.3 µM (%): 19
//
structureNotation: CCOc1ccc(-c2ccc(-c3ccc4c(c3)CC[C@H]3N(C)C(=O)CC[C@]43C)cc2)cc1
inhibition at 0.3 µM (%): 15
//
structureNotation: CN1C(=O)CC[C@]2(C)c3ccc(-c4cc(F)c([N+](=O)[O-])cc4F)cc3CC[C@@H]12
inhibition at 0.3 µM (%): 54
//
structureNotation: Cc1cccc(-c2ccc3c(c2)CC[C@H]2N(C)C(=O)CC[C@]32C)c1C
inhibition at 0.3 µM (%): 6
